Measured values drawn from paper PMC8781960 for this set.

- System: HeLA (cervical carcinoma)
- method-description: In vitro cytotoxicity (MTT)
- conditions-used: at 50 µg/mL; inactive (IC50 ≥ 50 µg/mL)
- Method: Background control wells contained the same volume as the complete culture medium. […] Samples at various concentrations were added to the microplate and incubated for another 48 h. Cell viability was determined by 3(4,5-dimethylthiazol-2-yl)-2-5-diphenyl tetrazolium bromide (MTT) assay (Sig-ma-Aldrich). […] The plates were read on a microplate reader (Molecular Devices, CA, USA) using a test wavelength of 550 nm and a reference wavelength of 650 nm. […]
Marks after values point to notes of the source that are not given here.

molecule: Cc1cc(C#N)cc(C)c1Oc1cc(Nc2ccc(C#N)cn2)nc2ccccc12
%C percentage cytotoxicity HeLA: %C = 0.0 ^c
--
molecule: N#Cc1ccc(Nc2cc(Oc3ccc(C#N)cc3)nc3ccccc23)cc1
%C percentage cytotoxicity HeLA: %C = 0.0 ^c
--
molecule: Cc1cc(/C=C\C#N)cc(C)c1Oc1cc(Nc2ccc(C#N)cn2)nc2ccccc12 [Compound 10b-cis]
%C percentage cytotoxicity HeLA: %C = 0.0 ^c

====

# melting point values compiled below
observation-type: melting point

compound: N#Cc1ccc(Nc2cc(Oc3ccc(C=O)cc3)c3ccccc3n2)cc1
result: 267.1 to 268 °C
--
compound: N#Cc1ccc(Oc2cc(Nc3ccc(C#N)cn3)nc3ccccc23)cc1
result: 225.7 to 225.9 °C
--
compound: Cc1cc(C#N)cc(C)c1Oc1cc(Nc2ccc(C#N)cc2)nc2ccccc12
result: 256.5 to 257 °C
--
compound: Cc1cc(C=O)cc(C)c1Oc1cc(Nc2ccc(C#N)cn2)nc2ccccc12
result: 275.7 to 276.5 °C
--
compound: Cc1cc(C#N)cc(C)c1Oc1cc(Nc2ccc(C#N)cc2)c2ccccc2n1
result: 201.3 to 202 °C
--
compound: Cc1cc(C#N)cc(C)c1Oc1cc(Nc2ccc(C#N)cn2)nc2ccccc12
result: 229.4 to 230.3 °C
--
compound: N#Cc1ccc(Nc2cc(Oc3ccc(C=O)cc3)c3ccccc3n2)nc1
result: 248 to 249 °C
--
compound: Cc1cc(C=CC#N)cc(C)c1Oc1cc(Nc2ccc(C#N)cc2)c2ccccc2n1 [Compound 11b]
result: 180.7 to 182.3 °C
--
compound: N#Cc1ccc(Nc2cc(Oc3ccc(C=O)cc3)nc3ccccc23)cc1
result: 238.5 to 238.9 °C
--
compound: N#Cc1ccc(Nc2cc(Oc3ccc(C#N)cc3)nc3ccccc23)cc1
result: 187.5 to 188 °C
--
compound: N#Cc1ccc(Oc2cc(Oc3ccc(C#N)cc3)c3ccccc3n2)cc1
result: 220.9 to 221.5 °C
--
compound: Cc1cc(C=O)cc(C)c1Oc1cc(Nc2ccc(C#N)cc2)nc2ccccc12
result: 291.3 to 292.2 °C
--
compound: Cc1cc(C=O)cc(C)c1Oc1cc(Nc2ccc(C#N)cc2)c2ccccc2n1
result: 200 to 201.3 °C

====

- Tested on: HepG2 (hepatocarcinoma)
- method-description: In vitro cytotoxicity (MTT)
- conditions-used: at 50 µg/mL; inactive (IC50 ≥ 50 µg/mL)
Marks after values point to notes of the source that are not given here.

compound: Cc1cc(C#N)cc(C)c1Oc1cc(Nc2ccc(C#N)cn2)nc2ccccc12
test-system: HepG2 (hepatocarcinoma)
%C percentage cytotoxicity HepG2: %C = 0.0 ^c
//
compound: Cc1cc(/C=C\C#N)cc(C)c1Oc1cc(Nc2ccc(C#N)cn2)nc2ccccc12 [Compound 10b-cis]
test-system: HepG2 (hepatocarcinoma)
%C percentage cytotoxicity HepG2: %C = 0.0 ^c

====

- Test system: A549 (lung carcinoma)
- method-description: In vitro cytotoxicity (MTT)
- conditions-used: at 50 µg/mL; inactive (IC50 ≥ 50 µg/mL)
- Procedure: Background control wells contained the same volume as the complete culture medium. […] Samples at various concentrations were added to the microplate and incubated for another 48 h. Cell viability was determined by 3(4,5-dimethylthiazol-2-yl)-2-5-diphenyl tetrazolium bromide (MTT) assay (Sig-ma-Aldrich). […] The plates were read on a microplate reader (Molecular Devices, CA, USA) using a test wavelength of 550 nm and a reference wavelength of 650 nm. […]
Marks after values point to notes of the source that are not given here.

compound: N#Cc1ccc(Nc2cc(Oc3ccc(C=O)cc3)c3ccccc3n2)nc1 [Compound 6a]
%C percentage cytotoxicity A549: %C = 42.0 ^c

compound: Cc1cc(/C=C/C#N)cc(C)c1Nc1ccnc(Nc2ccc(C#N)cc2)n1 [RPV, rilpivirine, reference compound]
%C percentage cytotoxicity A549: %C = 42.0 ^c

compound: Cc1cc(/C=C\C#N)cc(C)c1Oc1cc(Nc2ccc(C#N)cn2)nc2ccccc12 [Compound 10b-cis]
%C percentage cytotoxicity A549: %C = 0.0 ^c

compound: Cc1cc(C=CC#N)cc(C)c1Oc1cc(Nc2ccc(C#N)cc2)c2ccccc2n1 [Compound 11b]
%C percentage cytotoxicity A549: %C = 0.0 ^c

====

- System: A549 (lung carcinoma)
- method-description: In vitro cytotoxicity (MTT)
- conditions-used: Homo sapiens, A549, 48 h, read-out: IC50 A549
# IC50 values compiled below
observation-type: IC50 (µM)

compound: O=C1Nc2ccc(Cl)cc2[C@@](C#CC2CC2)(C(F)(F)F)O1 [EFV, efavirenz, reference compound]
observation-type: IC50
result-units: µM
quantitative-result: 60.2

compound: COc1cccc2c1C(=O)c1c(O)c3c(c(O)c1C2=O)C[C@@](O)(C(=O)CO)C[C@@H]3O[C@H]1C[C@H](N)[C@H](O)[C@H](C)O1 [Doxorubicin, reference compound]
observation-type: IC50
result-units: µM
quantitative-result: 0.6

compound: N#Cc1ccc(Nc2cc(Oc3ccc(C=O)cc3)c3ccccc3n2)cc1 [Compound 5a]
observation-type: IC50
result-units: µM
quantitative-result: 122

compound: Cc1cc(C#N)cc(C)c1Oc1cc(Oc2c(C)cc(C#N)cc2C)c2ccccc2n1 [Compound 4d]
observation-type: IC50
result-units: µM
quantitative-result: 55.5

compound: O=Cc1ccc(Oc2cc(-c3cc(Oc4ccc(C=O)cc4)c4ccccc4n3)nc3ccccc23)cc1 [Compound 7a]
observation-type: IC50
result-units: µM
quantitative-result: 69.5

compound: N#Cc1ccc(Oc2cc(Nc3ccc(C#N)cn3)nc3ccccc23)cc1 [Compound 6c]
observation-type: IC50
result-units: µM
quantitative-result: 14

compound: Cc1cc(C=O)cc(C)c1Oc1cc(Nc2ccc(C#N)cc2)nc2ccccc12 [Compound 5b]
observation-type: IC50
result-units: µM
quantitative-result: 51.2

compound: Cc1cc(C=O)cc(C)c1Oc1cc(Nc2ccc(C#N)cn2)nc2ccccc12 [Compound 6b]
observation-type: IC50
result-units: µM
quantitative-result: 108

compound: N#Cc1ccc(Nc2cc(Oc3ccc(C=O)cc3)nc3ccccc23)cc1 [Compound 8a]
observation-type: IC50
result-units: µM
quantitative-result: 111

compound: Cc1cc(C=O)cc(C)c1Oc1cc(Oc2c(C)cc(C=O)cc2C)c2ccccc2n1 [Compound 4b]
observation-type: IC50
result-units: µM
quantitative-result: 38.5

====

- Test system: S102 (Thai liver cancer)
- method-description: In vitro cytotoxicity (MTT)
- conditions-used: at 50 µg/mL; inactive (IC50 ≥ 50 µg/mL)
- Protocol: Background control wells contained the same volume as the complete culture medium. […] Samples at various concentrations were added to the microplate and incubated for another 48 h. Cell viability was determined by 3(4,5-dimethylthiazol-2-yl)-2-5-diphenyl tetrazolium bromide (MTT) assay (Sig-ma-Aldrich). […] The plates were read on a microplate reader (Molecular Devices, CA, USA) using a test wavelength of 550 nm and a reference wavelength of 650 nm. […]
Marks after values point to notes of the source that are not given here.
observation-type: %C percentage cytotoxicity S102

compound: Cc1cc(/C=C\C#N)cc(C)c1Oc1cc(Nc2ccc(C#N)cc2)nc2ccccc12 [Compound 9b-cis]
observation-type: %C percentage cytotoxicity S102
result: %C = 0.0 ^c
//
compound: Cc1cc(/C=C/C#N)cc(C)c1Oc1cc(Nc2ccc(C#N)cc2)nc2ccccc12 [Compound 9b-trans]
observation-type: %C percentage cytotoxicity S102
result: %C = 0.0 ^c

====

- test-system: HIV-1 RT (Human immunodeficiency virus type 1 group M subtype B, UniProt P03366)
- Construct: The reaction mixture consisted of template/primer complex, 2′-deoxy-nucleotide-5′-triphosphates (dNTPs), and RT enzyme in lysis buffer
- method-description: HIV-1 RT inhibition assay (Roche RT kit, colorimetric ELISA)
# IC50 values compiled below

compound: Cc1cc(/C=C/C#N)cc(C)c1Nc1ccnc(Nc2ccc(C#N)cc2)n1 [RPV, rilpivirine, reference compound]
IC50 [µM]: 0.06

compound: Cc1cc(C#N)cc(C)c1Oc1cc(Nc2ccc(C#N)cn2)nc2ccccc12
IC50 [µM]: 1.22

compound: Cc1cc(C=O)cc(C)c1Oc1cc(Nc2ccc(C#N)cn2)nc2ccccc12
IC50 [µM]: 1.93
